Biological target: UniProtKB Q99594
Assay: TR-FRET lipid pocket probe competition assay (Lipid HTRF), TEAD3
Assay type: binding
Details: 4 hours pre-incubation; read-out: Lipid HTRF TEAD3 IC50
Reported values of pIC50 for individual entries
Please express pIC50 as -log10 of the molar concentration.

Example entries begin here.
| molecule | parameter | value |
| --- | --- | --- |
| C=CC(=O)NCc1nn(-c2ccc(OC(F)(F)F)cc2)c2nccc(CN(C)C)c12 | pIC50 | 4.30 |
| C=C(F)C(=O)N1CC(c2nn(-c3ccc(OC(F)(F)F)cc3)c3nccc(N4CC[C@H](O)C4=O)c23)C1 | pIC50 | 6.57 |
| C=C(F)C(=O)N1CC(c2nn(-c3ccc(OC(F)(F)F)cc3)c3nccc(N4CC[C@@H](O)C4=O)c23)C1 | pIC50 | 5.77 |
| C=C(F)C(=O)N1CC(c2nn(-c3ccc(OC(F)(F)F)cc3)c3nccc(-c4cnn(CCS(C)(=O)=O)c4)c23)C1 | pIC50 | 4.30 |

Q) Let me know recorded pIC50 for C=CC(=O)NCc1nn(-c2ccc(C(F)(F)F)cc2)c2nccc([C@@H](O)CO)c12 (stereo in doubt) , thanks.
A) 5.68

Q) Let me know recorded pIC50 for C=CC(=O)NCc1nn(-c2ccc(OC(F)(F)F)cc2)c2nccc(N3CCC[C@@H](O)C3)c12 (stereo in doubt) , thanks.
A) 4.57

Q) Let me know recorded pIC50 for C=CC(=O)NCc1nn(-c2ccc(OC(F)(F)F)cc2)c2nccc(N(C)[C@H]3C[C@@H](O)C3)c12 , thanks.
A) 4.80

* * *

Target: TEAD3 (Homo sapiens (Human), UniProt Q99594)
Sequence (Q99594 whole entry, species assumed): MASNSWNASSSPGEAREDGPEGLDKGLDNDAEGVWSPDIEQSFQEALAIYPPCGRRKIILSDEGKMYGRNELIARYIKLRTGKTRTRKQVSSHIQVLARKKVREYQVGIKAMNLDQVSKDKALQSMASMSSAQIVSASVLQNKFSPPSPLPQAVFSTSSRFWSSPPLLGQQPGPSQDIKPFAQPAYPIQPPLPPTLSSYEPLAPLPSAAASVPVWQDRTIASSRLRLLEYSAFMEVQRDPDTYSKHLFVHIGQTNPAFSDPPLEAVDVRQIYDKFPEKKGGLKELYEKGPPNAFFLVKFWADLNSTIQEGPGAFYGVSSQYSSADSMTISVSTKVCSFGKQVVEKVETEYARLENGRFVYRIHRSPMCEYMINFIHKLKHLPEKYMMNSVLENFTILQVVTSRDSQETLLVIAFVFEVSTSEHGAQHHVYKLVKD
Experiment: TR-FRET lipid pocket probe competition assay (Lipid HTRF), TEAD3
Type: binding
Conditions: 4 hours pre-incubation; read-out: Lipid HTRF TEAD3 IC50
Reported values of pIC50 for individual entries
Please express pIC50 as -log10 of the molar concentration.

Example entries begin here.
| molecule | experimental.target | pIC50 |
| --- | --- | --- |
| C=CC(=O)NCc1nn(-c2ccc(C(F)(F)F)cc2)c2nccc([C@H](O)CO)c12 (stereo in doubt) [Compound 100] | TEAD3 (Homo sapiens (Human), UniProt Q99594) | 6.14 |
| C=C(F)C(=O)N1CC(c2nn(-c3ccc(OC(F)(F)F)cc3)c3nccc(-c4cnn(CCOC)c4)c23)C1 [Compound 176] | TEAD3 (Homo sapiens (Human), UniProt Q99594) | 4.30 |
| C=CC(=O)NCc1nn(-c2ccc(OC(F)(F)F)cc2)c2nccc([C@H](O)CO)c12 [Compound 17] | TEAD3 (Homo sapiens (Human), UniProt Q99594) | 6.11 |
| C=CC(=O)NCc1nn(-c2ccc(S(F)(F)(F)(F)F)cc2)c2cccc([C@@H](O)CO)c12 (single isomer, unassigned) [Compound 10] | TEAD3 (Homo sapiens (Human), UniProt Q99594) | 6.25 |
| O=C(C1=CCC1)N1CC(c2nn(-c3ccc(OC(F)(F)F)cc3)c3nccc([C@H](O)CO)c23)C1 [Compound 72] | TEAD3 (Homo sapiens (Human), UniProt Q99594) | 7.72 |

Q) Let me know recorded pIC50 for C=C(F)C(=O)N1CC(c2nn(-c3ccc(OC(F)(F)F)cc3)c3nccc(-c4cnn(C5COC5)c4)c23)C1 [Compound 175] , thanks.
A) 4.30

Q) Let me know recorded pIC50 for O=C(/C=C/Cl)NCc1nn(-c2ccc(OC(F)(F)F)cc2)c2nccc(CO)c12 [Compound 37] , thanks.
A) 7.48
